molecular target: human recombinant IRAK4 protein (Homo sapiens (Human), UniProt Q9NWZ3); test: IRAK4 enzyme assay (mass spectrometry readout); conditions: 3 mM ATP, 0.2 nM enzyme; geometric mean of at least n=2, * single experiment
Sequence (Q9NWZ3 whole entry): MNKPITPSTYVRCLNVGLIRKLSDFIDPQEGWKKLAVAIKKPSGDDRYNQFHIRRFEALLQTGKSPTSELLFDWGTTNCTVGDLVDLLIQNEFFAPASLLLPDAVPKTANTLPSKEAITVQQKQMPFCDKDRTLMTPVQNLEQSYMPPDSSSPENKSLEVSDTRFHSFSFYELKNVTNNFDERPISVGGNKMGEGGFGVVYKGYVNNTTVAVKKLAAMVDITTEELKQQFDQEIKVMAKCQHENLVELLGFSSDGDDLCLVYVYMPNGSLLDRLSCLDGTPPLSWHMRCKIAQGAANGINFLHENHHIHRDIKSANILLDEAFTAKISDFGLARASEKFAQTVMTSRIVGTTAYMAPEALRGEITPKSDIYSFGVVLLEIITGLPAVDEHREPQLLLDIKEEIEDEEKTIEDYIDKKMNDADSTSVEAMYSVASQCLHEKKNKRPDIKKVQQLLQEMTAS
Reported metric: IC50 (nM)

Worked examples, 3 compounds total:
| Compound | Result unit | IC50 |
| --- | --- | --- |
| O=C(Nc1cnc2cccnn12)c1cc2cn([C@H]3CC[C@@H](O)CC3)nc2cc1OC1CC1 | nM | 0.8 |
| COc1cc2nn(C3CCC4(CC3)CC(C)(O)C4)cc2cc1C(=O)Nc1cnc2cccnn12 (single isomer, unassigned) [Example 5] | nM | 0.5 |
| COc1cc2nn([C@H]3CC[C@@H](O)C[C@@H]3C)cc2cc1C(=O)Nc1cnn2cccnc12 (relative stereo) | nM | 14.3 |

1 = COc1cc2nn([C@H]3CC[C@H](N(C)C(=O)[C@@H]4CC[C@@H](O)C4)CC3)cc2cc1C(=O)Nc1cnn2cccnc12 (relative stereo) [Example 112]
2 = COc1cc2nn([C@H]3CC[C@@H](O)C[C@@H]3C)cc2cc1C(=O)Nc1cnc2cccnn12
Ask: Please indicate which entry, 1 or 2 , has the lower recorded IC50 value. To answer, give the label that identifies your chosen option.
Reply: 1
(1: 0.7 nM, 2: 5.2 nM)

A = COc1cc2nn(C3CCC4(CC3)CC(C)(O)C4)cc2cc1C(=O)Nc1cnc2cccnn12 (single isomer, unassigned) [Example 6]
B = COc1cc2nn([C@@H]3CC[C@]4(CCC(=O)N4C)C[C@H]3C)cc2cc1C(=O)Nc1cnc2cccnn12 (relative stereo)
C = COc1cc2nn([C@H]3CCC[C@](C)(O)C3)cc2cc1C(=O)Nc1cnn2cccnc12 (single isomer, unassigned) [Example 52]
D = COc1cc2nn(C3CCC4(CC3)COCC(=O)N4C)cc2cc1C(=O)Nc1cnn2cccnc12 (single isomer, unassigned) [Example 118]
E = COc1cc2nn([C@@H]3CC[C@H](O)C[C@H]3C)cc2cc1C(=O)Nc1cnc2cccnn12
Ask: // ascending sort on recorded IC50 Returns: the labels arranged in the requested order.
Reply: A, E, B, C, D

A = COc1cc2nn([C@H]3CC[C@H](N(C)C(=O)[C@@H]4CC[C@@H](O)C4)CC3)cc2cc1C(=O)Nc1cnn2cccnc12 (relative stereo) [Example 113]
B = COc1cc2nn([C@H]3CC[C@H](O)C[C@@H]3C)cc2cc1C(=O)Nc1cnn2cccnc12 (single isomer, unassigned) [Example 38]
C = CC(=O)N1CC2(CC[C@@H](n3cc4cc(C(=O)Nc5cnn6cccnc56)c(OC5CC5)cc4n3)[C@H](C)C2)C1 (single isomer, unassigned) [Example 28]
D = COc1cc2nn([C@@H]3CC[C@@H](O)C[C@H]3C)cc2cc1C(=O)Nc1cnc2cccnn12
E = COc1cc2nn([C@H]3CC[C@]4(CC3)CC(=O)N(C)C4)cc2cc1C(=O)Nc1cnn2cccnc12
Ask: Thanks in advance: please rank these 5 entries by IC50, highest to lowest. Your answer should be the labels, listed in the requested order.
Reply: B, C, E, D, A
